# assay comment: Kinetic aqueous solubility by CLND
# Type: physicochemical
# condition parameters: aqueous medium (not further specified), kinetic from dmso stock, high-throughput CLND
measurement name: solubility (µM)

Recorded solubility, per entry:
COc1ccc(N2C(=O)c3[nH]nc(CC(C)C)c3C2c2ccsc2)cc1 (centres unmarked) [Compound S3] = 149
COc1ccc(N2C(=O)c3[nH]nc(CC(C)C)c3C2c2cccc(F)c2)cc1 (centres unmarked) [Compound 58] = 91
COc1ccc(N2C(=O)c3[nH]nc(CC(C)C)c3C2c2ccccc2Cl)cc1 (centres unmarked) [Compound 55] = 30
COc1ccc(N2C(=O)c3[nH]nc(CC(C)C)c3C2c2nccs2)cc1 (centres unmarked) [Compound S5] = 143
COC(=O)c1ccc(C2c3c(CC(C)C)n[nH]c3C(=O)N2c2ccc(OC)cc2)cc1 (centres unmarked) [Compound 51] = 44
COc1ccc(CN2C(=O)c3[nH]nc(CC(C)C)c3C2c2ccc(F)cc2)cc1 (centres unmarked) [Compound 34] = 45
Cc1ccc(CN2C(=O)c3[nH]nc(CC(C)C)c3C2c2ccc(F)cc2)o1 (centres unmarked) [Compound 35] = 19
COc1ccc(N2C(=O)c3[nH]nc(CC(C)C)c3C2c2cccs2)cc1 (centres unmarked) [Compound S2] = 8

P. COc1ccc(N2C(=O)c3[nH]nc(CC(C)C)c3C2c2cc(F)nc(F)c2)cc1 (centres unmarked) [Compound S14]
Q. COc1ccc(N2C(=O)c3[nH]nc(CC(C)C)c3C2c2ccccc2OC)cc1 (centres unmarked) [Compound 57]
Between P and Q , which one has the lower reported solubility value? Mark your answer with the label of the selected entry.
Q

P. COc1ccc(N2C(=O)c3[nH]nc(CC(C)C)c3C2c2ccc(F)cc2)cn1 (centres unmarked) [Compound 31]
Q. COc1ccc(N2C(=O)c3[nH]nc(CC(C)C)c3C2c2cccc(OC)c2)cc1 (centres unmarked) [Compound 61]
R. COc1ccc(N2C(=O)c3[nH]nc(CC(C)C)c3C2c2ccccc2)cc1 (centres unmarked) [Compound 2]
# ascending order, key=solubility Order the labels as requested and give them as your answer.
Q, R, P
(Q: 63 µM, R: 90 µM, P: 194 µM)

I. COc1ccc(N2C(=O)c3[nH]nc(CC(C)C)c3C2c2ccncn2)cc1 (centres unmarked) [Compound S8]
II. COc1ccc(N2C(=O)c3[nH]nc(CC(C)C)c3C2c2c(Cl)cccc2Cl)cc1 (centres unmarked) [Compound 66]
III. COc1ccc(N2C(=O)c3[nH]nc(CC(C)C)c3C2c2ccc(F)cc2F)cc1 (centres unmarked) [Compound 63]
Rank descending by solubility. Order the labels as requested and give them as your answer.
I, III, II

---

The reader will find reported solubility values listed item by item below.
# assay comment: Kinetic aqueous solubility by CLND
# Assay type: physicochemical
# condition parameters: aqueous (not further specified), kinetic from dmso stock, high-throughput CLND

// below: answered molecules
CC(C)Cc1n[nH]c2c1C(c1ccc(F)cc1)N(c1ccc(C(=O)O)cc1)C2=O (stereo not drawn) = ≥ 389 µM
CC(C)Cc1n[nH]c2c1C(c1ccc(F)cc1)N(c1ccc(C(C)(C)C)cc1)C2=O (stereo not drawn) = < 1 µM

What solubility value was documented for this molecule, CC(C)Cc1n[nH]c2c1C(c1ccc(F)cc1)N(c1ccc(O)cc1)C2=O (stereo not drawn) ?
≥ 430 µM

---

// reported CC50 for each item listed
# assay comment: GSK inMac assay, host cell toxicity readout (LD MAC)
# Assay type: cell-based, human
# condition parameters: human; footnote c; read-out: THP-1 Host Cell CC50

CC(C)Cc1n[nH]c2c1C(c1ccccc1Br)N(CCN1CCCC1)C2=O (stereo not drawn) = > 50 µM
COc1cncc(N2C(=O)c3[nH]nc(CC(C)C)c3C2c2ccc(F)cc2)c1 (stereo not drawn) = > 50 µM

With those in mind, consider the next compound.
Query: CC50; subject: COc1ccc(N2C(=O)c3[nH]nc(CC(C)C)c3[C@@H]2c2ccc(F)cc2)cc1
> 20 µM

---

# Lookup of reported Papp at 3 h keyed by entry
# assay comment: Artificial membrane permeability (AMP)
# Assay type: in vitro ADME
# condition parameters: PAMPA, pH 7.4

COc1ccc(CN2C(=O)c3[nH]nc(CC(C)C)c3C2c2ccc(F)cc2)cc1 (stereo not drawn) = 55 ×10⁻⁶ cm/s

Need Papp at 3 h, item CC(C)Cc1n[nH]c2c1C(c1ccc(F)cc1)N(c1ccc(-n3ccnc3)cc1)C2=O (stereo not drawn)
< 0.3 ×10⁻⁶ cm/s

Now give it for CCc1ccc(N2C(=O)c3[nH]nc(CC(C)C)c3C2c2ccc(F)cc2)cc1 (stereo not drawn) too.
< 1 ×10⁻⁶ cm/s

---

# assay comment: Artificial membrane permeability (AMP)
# Format: in vitro ADME
# condition parameters: PAMPA, pH 7.4
measurement name: Papp at 3 h (×10⁻⁶ cm/s)

COc1ccc(N2C(=O)c3[nH]nc(CC(C)C)c3C2c2ccc(F)cc2)cc1 (racemic) = 34.5
COc1ccc(N2C(=O)c3[nH]nc(CC(C)C)c3C2c2cccc(C(F)(F)F)c2)cc1 (stereo not shown) = 22
COc1ccc(N2C(=O)c3[nH]nc(CC(C)C)c3C2C2CCN(Cc3ccccc3)CC2)cc1 (stereo not shown) = 29
CC(C)Cc1n[nH]c2c1C(c1ccc(F)cc1)N(c1ccc3c(c1)OCO3)C2=O (stereo not shown) = 39

---

CC50: recorded values
# assay comment: GSK inMac assay, host cell toxicity readout (LD MAC)
# Type: cell-based, human
# condition parameters: human; footnote c; read-out: THP-1 Host Cell CC50

Cc1cc(F)ccc1C1c2c(CC(C)C)n[nH]c2C(=O)N1c1ccc2ncnn2c1 (stereo not shown) [CMLD010948] = > 20 µM

Dear colleague, I am looking for the recorded CC50 of the following compound: COc1ccc(N2C(=O)c3[nH]nc(CC(C)C)c3C2c2ccc(F)cc2)cc1 (stereo not shown) [CMLD007431]
> 20 µM

Same question, CCn1nc2c(c1CC(C)C)C(c1ccc(F)cc1)N(c1ccc(OC)cc1)C2=O (stereo not shown) [BUCMD00810] this time
> 50 µM

Ok, now COc1ccc(N2C(=O)c3[nH]nc(CC(C)C)c3C2c2cc(F)nc(F)c2)cc1 (stereo not shown) [CMLD011028]
> 50 µM

Let us now turn to COc1ccc(N2C(=O)c3[nH]nc(CC(C)C)c3C2c2ccccc2Br)cn1 (stereo not shown) [CMLD012218]
> 20 µM

# repeat for COC(=O)c1ccc(N2C(=O)c3[nH]nc(CC(C)C)c3C2C2CCCCC2)cc1 (stereo not shown) [CMLD011094]
> 50 µM

# repeat for CC(C)Cc1n[nH]c2c1C(c1ccsc1)N(c1ccc(C(C)(C)C)cc1)C2=O (stereo not shown) [CMLD011135]
> 50 µM

# repeat for CO[C@H]1CC[C@H](N2C(=O)c3[nH]nc(CC(C)C)c3C2c2ccc(F)cc2)CC1 (stereo partly shown) [CMLD011036]
> 50 µM

Similarly, CC(C)Cc1n[nH]c2c1C(c1ccccc1Br)N(c1ccc3c(c1)OCO3)C2=O (stereo not shown) [CMLD011548] ?
> 20 µM

What would you report for CC(C)Cc1n[nH]c2c1[C@@H](c1ccc(F)cc1)N([C@H]1CC[C@H](N(C)C)CC1)C2=O [CMLD011124] ?
> 50 µM

---

# assay comment: UCSD infection assay, host cell cytotoxicity (CC50)
# Assay type: cell-based
# condition parameters: mouse, B10R host cells infected with L. donovani; footnote d
Measured CC50 at 72 h accompanies every entry in the list below.
Use µM as the unit, but write only the number.

// worked examples, CC50 at 72 h included
COc1ccc(N2C(=O)c3[nH]nc(CC(C)C)c3C2c2ccc(F)cc2C)cc1F (centres unmarked) [CMLD011562] = 10
COc1ncc(N2C(=O)c3[nH]nc(CC(C)C)c3C2c2ccc(F)cc2Cl)cc1F (centres unmarked) [BUCMD00730] = 10
COc1ccc(N2C(=O)c3[nH]nc(CC(C)C)c3C2c2ccccc2Cl)cn1 (centres unmarked) [BUCMD00686] = 10
CC(C)Cc1n[nH]c2c1C(c1ccc(F)cc1Cl)N(c1cncc(F)c1)C2=O (centres unmarked) [BUCMD00694] = 10

Then this molecule:
Tell me the measured CC50 at 72 h of COc1cc(F)ccc1C1c2c(CC(C)C)n[nH]c2C(=O)N1c1ccc(N(C)C)cc1 (centres unmarked) [CMLD011572] , please.
10

---

solubility for assorted molecules
# assay comment: Kinetic aqueous solubility by CLND
# Format: physicochemical
# condition parameters: aqueous medium (not further specified), kinetic from dmso stock, high-throughput CLND

COc1ccc(N2C(=O)c3[nH]nc(CC(C)C)c3C2c2ccnnc2)cc1 (stereo not shown) [Compound S9] = ≥ 340 µM
COc1ccc(N2C(=O)c3[nH]nc(CC(C)C)c3C2c2ccccn2)cc1 (stereo not shown) [Compound S7] = ≥ 450 µM
CC(C)Cc1n[nH]c2c1C(c1ccc(F)cc1)N(C1CCC(N(C)C)CC1)C2=O (stereo not shown) [Compound 37] = ≥ 446 µM
COCCN1C(=O)c2[nH]nc(CC(C)C)c2C1c1ccc(F)cc1 (stereo not shown) [Compound 41] = ≥ 421 µM
CC(C)Cc1n[nH]c2c1C(c1ccc(F)cc1)N(CC1CCN(C)C1)C2=O (stereo not shown) [Compound 40] = ≥ 351 µM
COC1CCC(N2C(=O)c3[nH]nc(CC(C)C)c3C2c2ccc(F)cc2)CC1 (stereo not shown) [Compound 36] = ≥ 450 µM

Returns the measured solubility for the input molecule. Input: COc1ccc(N2C(=O)c3[nH]nc(CC(C)C)c3C2c2ccncc2)cc1 (stereo not shown) [Compound S6]
≥ 432 µM

Entry CC(C)Cc1n[nH]c2c1C(c1ccc(F)cc1)N(CCN1CCCC1)C2=O (stereo not shown) [Compound 39] please
≥ 433 µM

Would you mind doing CC(C)Cc1n[nH]c2c1C(c1ccc(F)cc1)N(C1CCOCC1)C2=O (stereo not shown) [Compound 38] as well?
≥ 381 µM

Further, for COc1ccc(N2C(=O)c3[nH]nc(CC(C)C)c3C2c2cncs2)cc1 (stereo not shown) [Compound S4] ?
≥ 534 µM
